target: UniProt:Q9H228; assay: S1PR5 selectivity assay (Ca2+ flux, antagonist, S1PR5 specific agonist trigger); settings: S1P5 antagonist EC50, CHO cells overexpressing human S1PR5 and Gq protein
Listed next: entries and their corresponding EC50.

Given the entry Cc1cc(CNC(=O)Nc2cc(Cl)nc(OCC(F)F)c2)nnc1N1CCC(S(C)(=O)=O)C1 (stereo not drawn) [Compound 91] , report its measured EC50.
≥ 19.8 µM

Further cases:
Reported EC50 for Cc1cc(CNC(=O)Nc2cc(OCC3COCCO3)nc(C(F)(F)F)c2)nnc1-c1cn(C)nc1C(F)(F)F (stereo not drawn) [Compound 37] : what is it?
≥ 19.8 µM

Next up: CCOc1nc(C)cc(N/C(=N/C#N)NCc2cc(C)c(-c3cn(C)nc3C(F)(F)F)nn2)c1C [Compound 78]
≥ 19.8 µM

* * *

target: S1PR2 (Homo sapiens, UniProt O95136); assay: GTP-γS binding assay ([35S]GTPγS, S1P at EC80, S1PR2 membranes); conditions: membranes from stable cell line over expressing S1PR2, read-out: S1PR2 EC
Sequence (O95136 whole entry): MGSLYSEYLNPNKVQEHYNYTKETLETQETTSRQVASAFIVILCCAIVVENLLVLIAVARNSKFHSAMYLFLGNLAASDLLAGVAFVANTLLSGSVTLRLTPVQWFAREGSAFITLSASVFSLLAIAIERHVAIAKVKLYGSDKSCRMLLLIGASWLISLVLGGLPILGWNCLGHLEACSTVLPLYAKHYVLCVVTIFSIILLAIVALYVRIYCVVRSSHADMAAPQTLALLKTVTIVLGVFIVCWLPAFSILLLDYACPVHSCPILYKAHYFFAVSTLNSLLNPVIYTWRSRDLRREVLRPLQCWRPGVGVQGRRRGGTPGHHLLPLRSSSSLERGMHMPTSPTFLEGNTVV
quantity.kind: EC50 (nM)

Known results for compounds:
Sample Cc1cn(-c2nnc(CNC(=O)Nc3cc(Cl)nc(OCC(F)F)c3)cc2C)c(C)n1 — what was its EC50?
904

For Cc1cc(CNC(=O)Nc2cc(OCC3COCCO3)nc(C(F)(F)F)c2)nnc1-c1cn(C)nc1C(F)(F)F (centres unmarked) then?
9580

How about this compound: CCOc1nc(Cl)cc(NC(=O)NCc2cc(C)c(-c3cn(C)nc3C(F)(F)F)nn2)c1C
15.2

Item: Cc1cc(CNC(=O)Nc2cnc(OCC(F)F)c(C(F)(F)F)c2)nnc1-c1cn(C)nc1C(F)(F)F
330

What about this compound? CN(C)c1cc(CNC(=O)Nc2cc(Cl)nc(OCC(F)F)c2)nnc1-c1cn(C)nc1C(F)(F)F
298

Proceed to Cc1cc(CNC(=O)Nc2cc(OCC(=O)N(C)C)nc(C(F)(F)F)c2)nnc1-c1cn(C)nc1C(F)(F)F
28700

[a] Cc1cc(NC(=O)NCc2cc(C)c(-c3cn(C)nc3C(F)(F)F)nn2)c(C)c(OCC(F)F)n1
[b] Cc1cc(CNC(=O)Nc2cc(OCC(F)F)nc(C3CC3)c2)nnc1-c1cn(C)nc1C(F)(F)F
// task: argmin of EC50 over [ a , b ] Output the label that corresponds to your choice.
a

[I] Cc1cc(CNC(=O)Nc2cc(Cl)nc(OCCF)c2)nnc1-c1cn(C)nc1C(F)(F)F
[II] Cc1cc(CNC(=O)Nc2cc(Cl)nc(OCC(F)F)c2)nnc1N1CCOC(CN(C)C)C1 (centres unmarked)
[III] Cc1cc(CNC(=O)Nc2cc(Cl)nc(OCC(F)F)c2)nnc1N1CCC(F)(CO)C1 (centres unmarked)
[IV] CCOc1cc(NC(=O)NCc2cc(C)c(N3CC(C)OC(C)C3)nn2)cc(Cl)n1 (centres unmarked)
In this exercise, place the 4 compounds in ascending sequence of their recorded EC50. Please respond with the labels ordered as the question requires.
I, IV, II, III
(I: 62.9 nM, IV: 156 nM, II: 274 nM, III: 1170 nM)

* * *

target: human GPCR sphingosine 1-phosphate receptor 5 (S1PR5) (Homo sapiens); test: S1PR5 selectivity assay (Ca2+ flux, antagonist, S1PR5 specific agonist trigger); settings: S1P5 antagonist EC50, CHO cells overexpressing human S1PR5 and Gq protein
Sequence (Q9H228 whole entry): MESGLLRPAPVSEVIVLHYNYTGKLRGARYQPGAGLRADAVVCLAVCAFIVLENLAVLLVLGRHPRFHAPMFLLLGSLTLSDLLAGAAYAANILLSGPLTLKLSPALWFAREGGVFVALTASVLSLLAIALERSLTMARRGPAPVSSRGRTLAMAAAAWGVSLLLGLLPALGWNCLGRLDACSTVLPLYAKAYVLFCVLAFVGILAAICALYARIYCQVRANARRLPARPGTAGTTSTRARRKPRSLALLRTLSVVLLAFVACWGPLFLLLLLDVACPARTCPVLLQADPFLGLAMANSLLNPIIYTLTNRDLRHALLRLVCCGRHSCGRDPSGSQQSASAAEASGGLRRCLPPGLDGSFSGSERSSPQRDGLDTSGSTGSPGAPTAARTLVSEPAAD
quantity.kind: EC50 (µM)

Here are 4 compounds together with their reported answers.
// returns reported EC50 for input Cc1cc(CNC(=O)Nc2cc(OCC3(C(F)(F)F)CC3)nc(C(F)(F)F)c2)nnc1-c1cn(C)nc1C(F)(F)F [Compound 39]
6.61

Now consider CCOc1cc(N/C(=N/C#N)NCc2cc(C)c(-c3cn(C)nc3C(F)(F)F)nn2)cc(C(F)(F)F)n1 [Compound 76] .
6.61

Same thing, different compound: Cc1cc(CNC(=O)Nc2cc(OCC(C)(F)F)nc(C(F)(F)F)c2)nnc1-c1cn(C)nc1C(F)(F)F [Compound 34]
6.61

Same thing, different compound: CCOc1cc(NC(=O)NCc2cc(C)c(-c3cn(C4CCOC4)nc3C(F)(F)F)nn2)cc(C(F)(F)F)n1 (centres unmarked) [Compound 52]
6.62

[1] CCOc1nc(C)cc(NC(=O)NCc2cc(C)c(N3C[C@@H](C)O[C@@H](C)C3)nn2)c1Cl [Compound 94]
[2] CCOc1cc(NC(=O)NCc2cc(C)c(-c3cn(C)nc3C(F)(F)F)nn2)cc(C(F)(F)F)n1 [Compound 1]
[3] Cc1cc(CNC(=O)Nc2cc(Cl)nc(OCC(F)F)c2)nnc1N1CCOC(C(F)(F)F)C1 (centres unmarked) [Compound 89]
Place the items in sequence of falling EC50. Field: ranking. Enter the labels in the order requested.
2, 3, 1
(2: 6.61 µM, 3: 0.839 µM, 1: 0.479 µM)

* * *

test system: HFL-1 cells; experiment: IL8 assay (S1P induced IL-8 production); assay type: cell-based; settings: Homo sapiens, HFL1; S1P (1 μM) induced IL-8, HFL-1 cells, without HSA
pEC50: −log10 of the molar value.
quantity.kind: pEC50

Here's what some known entries look like.
# pEC50 lookup, item Cc1cc(CNC(=O)Nc2cc(Cl)nc(OCC(F)F)c2)nnc1N1CCC(F)(CO)C1 (stereo not drawn)
6.61

Would you mind doing Cc1cc(CNC(=O)Nc2cc(Cl)nc(OCCF)c2)nnc1-c1cn(C)nc1C(F)(F)F as well?
8.34

And the next one, CCOc1cc(NC(=O)NCc2cc(C)c(-c3cn(C)nc3C3CC3)nn2)cc(C(F)(F)F)n1 ?
7.94

Can you check CN(C)Cc1cc(CNC(=O)Nc2cc(Cl)nc(OCC(F)F)c2)nnc1-c1cn(C)nc1C(F)(F)F next?
5.58

Entry to check: CCOc1cc(NC(=O)NCc2cc(C)c(-c3cnn(C)c3C)nn2)cc(C(F)(F)F)n1
6.97

// repeat for Cc1cc(CNC(=O)Nc2cc(Cl)nc(OCC(F)F)c2)nnc1N1CCOC(C(F)(F)F)C1 (stereo not drawn) and report
7.48

How about this molecule: Cc1cc(CNC(=O)Nc2cc(OCC(O)CO)nc(C(F)(F)F)c2)nnc1-c1cn(C)nc1C(F)(F)F (stereo not drawn)
5.81

And for CCOc1cc(NC(=O)NCc2cc(C)c(N3CCCc4nn(C)cc43)nn2)cc(C(F)(F)F)n1 ?
7.36

[I] Cc1cc(CNC(=O)Nc2cc(OCC(F)F)nc(N3CC(F)(F)C3)c2)nnc1-c1cn(C)nc1C(F)(F)F
[II] Cc1cc(NC(=NC#N)NCc2cc(C)c(-c3cn(C)nc3C(F)(F)F)nn2)c(C)c(OCC(F)F)n1
Kindly identify the item with the lower pEC50 figure among these two: I and II Select an item and report its label.
II
(II: 6.36, I: 7.62)

[I] CCOc1nc(C(F)(F)F)cc(NC(=O)NCc2cc(C)c(-c3cn(C)nc3C(F)(F)F)nn2)c1CC
[II] CCOc1nc(C(F)(F)F)cc(NC(=O)NCc2cc(C)c(-c3cn(C)nc3C(F)(F)F)nn2)c1C
Between the two listed entries I and II , which has its pEC50 at the higher number? Respond using the label that marks the chosen record.
II

[A] Cc1cc(CNC(=O)Nc2cc(Cl)nc(OCC(F)F)c2)nnc1N1CCOC(CN(C)C)C1 (stereo not drawn)
[B] CCOc1cc(N/C(=N/C#N)NCc2cc(C)c(-c3cn(C)nc3C(F)(F)F)nn2)cc(C(F)(F)F)n1
[C] Cc1cc(CNC(=O)Nc2cc(Cl)nc(OCC(F)F)c2)nnc1N1CCC(S(C)(=O)=O)C1 (stereo not drawn)
Reorder: pEC50, max to min. Please list the labels according to the requested order.
B, A, C

* * *

molecular target: S1PR2 (Homo sapiens, UniProt O95136); test: GTP-γS binding assay ([35S]GTPγS, S1P at EC80, S1PR2 membranes); conditions: membranes from stable cell line over expressing S1PR2, read-out: S1PR2 EC
quantity.kind: EC50 (nM)

Some solved entries appear below for comparison.
Under S1PR2 (Homo sapiens, UniProt O95136): EC50 value of CCOc1cc(NC(=O)NCc2cc(C)c(N3CC(F)(F)C3)nn2)cc(Cl)n1 ?
160

Moving on to CCOc1nc(C(F)(F)F)cc(NC(=O)NC(C)c2cc(C)c(-c3cn(C)nc3C(F)(F)F)nn2)c1C (centres unmarked)
211

Follow-up entry: CCOc1cc(NC(=O)NCc2cc(C)c(-c3cn(C)nc3C(F)(F)F)nn2)cc(C#N)n1
35.8

[a] CCOc1nc(C(F)(F)F)cc(N/C(=N/C#N)NCc2cc(C)c(-c3cn(C)nc3C(F)(F)F)nn2)c1C
[b] Cc1cc(NC(=NC#N)NCc2cc(C)c(-c3cn(C)nc3C(F)(F)F)nn2)c(C)c(OCC(F)F)n1
[c] Cc1cc(CNC(=O)Nc2cnc(OCC3CC3)c(C(F)(F)F)c2)nnc1-c1cn(C)nc1C(F)(F)F
[d] CCOc1cc(NC(=O)NC(C)c2cc(C)c(-c3cn(C)nc3C(F)(F)F)nn2)cc(Cl)n1 (centres unmarked)
# desc sort on EC50 across 4 compounds Response field: labels, in requested order.
b, c, d, a

[P] CCOc1ncc(NC(=O)NCc2cc(C)c(N3CC(C)OC(C)C3)nn2)cc1C(F)(F)F (centres unmarked)
[Q] Cc1cc(CNC(=O)Nc2cc(Cl)c(F)c(Cl)c2)nnc1-c1cn(C)nc1C(F)(F)F
[R] Cc1cc(CNC(=O)Nc2cc(Cl)nc(OCC(F)F)c2)nnc1N1CCOC(C(F)(F)F)C1 (centres unmarked)
[S] Cc1cc(CNC(=O)Nc2cnc(OCC3CC3)c(Cl)c2)nnc1-c1cn(C)nc1C(F)(F)F
Rank entries according to their EC50, from the largest number down. The labels, placed in the requested order, form the answer.
P, S, R, Q
